Where do these numbers come from? They come from patent US8853246B2.

readout: melting point

Use these answered entries as a reference point.
CC(C)C(=O)Nc1sc(-c2cccnc2)nc1C(F)(F)F | 130 to 131 °C
CC(C[S+](C)[O-])C(=O)Nc1sc(-c2cncc(F)c2)nc1Br (centres unmarked) | 172 to 175 °C
Cc1nc(-c2cccnc2)sc1NC(=O)C(C)C | 159 to 162 °C
C=CCSCC(C)C(=O)Nc1sc(-c2cncc(F)c2)nc1C (centres unmarked) | 76 to 79 °C
CC(C)(C)OC(=O)N(C(=O)OC(C)(C)C)c1sc(-c2cncc(F)c2)nc1Cl | 125 to 128 °C

Measured melting point of `CS(=O)(=O)CCC(=O)Nc1sc(-c2cncc(F)c2)nc1Cl` : 239 to 240 °C

Reported melting point of CSCC(C)C(=O)Nc1sc(-c2ccc(Cl)nc2)nc1C (centres unmarked) : 142 to 146 °C

// melting point lookup, compound = CN(C(=O)C(C)(C)C[S+](C)[O-])c1cnc(-c2cncc(F)c2)s1 (centres unmarked) , result: 155 to 159 °C

According to the records, this compound `CSCC(=O)N(C)c1sc(-c2cccnc2)nc1Cl` displays melting point of 111 to 114 °C

Please fill in: melting point reported for CCN(C(=O)C1(C)CC1(Cl)Cl)c1sc(-c2cccnc2)nc1Cl (centres unmarked) = 144 to 146 °C

So, `Cc1nc(-c2cccnc2)sc1N(C)C(=S)Nc1ccc(Cl)cc1` ? Its melting point was 53 to 54 °C

Quick note, melting point for CSCC(C)C(=O)Nc1sc(-c2cncc(F)c2)nc1C (centres unmarked) landed at 110 to 113 °C

Value of melting point reported for the compound `CN(C(=O)OC(C)(C)C)c1sc(-c2cccnc2)nc1Cl` is 119 to 122 °C

Looking up `CSCCCC(=O)Nc1sc(-c2cccnc2)nc1C` , I see its melting point listed as 110 to 112 °C

Query `CCCC(C)(C)OC(=O)N(C)c1sc(-c2cccnc2)nc1C` yields melting point of 65 to 69 °C

In plain terms, Cc1nc(-c2cccnc2)sc1NC(=O)C(C)(C)C[S+](C)[O-] (centres unmarked) has a documented melting point of 55 to 60 °C

Notebook: CSCC(C)C(=O)Nc1sc(-c2ccc(F)nc2)nc1C (centres unmarked) , melting point read as 143 to 146 °C

Noted for `Cc1nc(-c2cncc(F)c2)sc1N(C)C(=O)C(C)C` : its melting point reads 123 °C
